- Tested on: primary human T-cells
- assay-notes: IL2 secretion measurements (24 h, CD3-stimulated T-cells, PBS counter screen)
- Assay type: cell-based
- setup-conditions: CD3 condition; normalised to DMSO (neutral) and 20 μM reference compound A1 = 100%
reported-metric: Emax IL2 (% activation)
Please provide the amount together with its unit, number first.

For record COc1ccc(-c2ccc(CN3C(=O)[C@@H](N)CS(=O)(=O)c4ccc(-c5nnc(N6CCC(F)(F)C6)o5)cc43)cc2)cc1 the listed Emax IL2 (% activation) is 297 % activation

For record CC(C)(C#N)c1nnc(-c2ccc3c(c2)N(Cc2ccc(-n4cc(C(F)(F)F)cn4)cc2)C(=O)[C@@H](N)CS3(=O)=O)o1 the listed Emax IL2 (% activation) is 143 % activation

For record COC(=O)N1CC2CC(c3nnc(-c4ccc5c(c4)N(Cc4ccc(-c6ccc(OC)cc6)cc4)C(=O)[C@@H](N)CS5(=O)=O)o3)(C2)C1 the listed Emax IL2 (% activation) is 175 % activation

For record N[C@H]1CS(=O)(=O)c2ccc(-c3noc(-c4cccnc4C(F)(F)F)n3)cc2N(Cc2ccc(-c3noc(C4CC4)n3)cc2)C1=O the listed Emax IL2 (% activation) is 16 % activation

For record CCN1CC(c2nnc(-c3ccc4c(c3)N(Cc3ccc(-c5noc(C(C)(C)C)n5)cc3)C(=O)[C@@H](N)CS4(=O)=O)o2)CC(F)(F)C1 (stereo partly drawn) the listed Emax IL2 (% activation) is 66 % activation

For record N[C@H]1CS(=O)(=O)c2ccc(-c3nnc(C4(CO)CCCO4)o3)cc2N(Cc2ccc(-c3ccc(C(F)(F)F)cc3)cc2)C1=O (stereo partly drawn) the listed Emax IL2 (% activation) is 74 % activation

These data points were gathered from patent US20260138976A1.
